The measurements presented in this section are drawn from the supplement of paper PMC7877785.

experiment: self-splicing fitness, log relative to wild type (ln ratio); higher = more splicing; Tetrahymena group I intron in knt gene, E. coli kanamycin selection, DiMSum; sequences stand for … in CUCUCU…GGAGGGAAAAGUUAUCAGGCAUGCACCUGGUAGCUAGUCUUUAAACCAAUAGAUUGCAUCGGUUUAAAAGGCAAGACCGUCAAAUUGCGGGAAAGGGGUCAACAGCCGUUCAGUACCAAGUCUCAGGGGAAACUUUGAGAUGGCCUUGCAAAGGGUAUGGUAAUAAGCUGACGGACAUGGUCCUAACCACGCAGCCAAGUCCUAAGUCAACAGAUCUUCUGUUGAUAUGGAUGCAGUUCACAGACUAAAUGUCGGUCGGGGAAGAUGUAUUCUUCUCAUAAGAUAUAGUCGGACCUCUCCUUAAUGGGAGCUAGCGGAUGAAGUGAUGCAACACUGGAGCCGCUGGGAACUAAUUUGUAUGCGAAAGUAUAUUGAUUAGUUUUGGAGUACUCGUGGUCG; settings: 30 °C;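 also: selection with 25 µg/mL kanamycin versus none on LB agar overnight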
parameter: self-splicing fitness (ln)
I only need the number, thanks.

Input line: Entry under review: `GCACAGCAAUAUUACGAGAA` . Reported self-splicing fitness (ln)?
Output line: -2.66

Input line: Follow-up entry: `UCCUAGCAAUAUUACGUGCU`
Output line: -3.5

Input line: Follow-up entry: `GAGUAGCAAUAUUACGCCUU`
Output line: -3.2

Input line: Follow-up entry: `GCAUAGCAAUAUUACGGGGG`
Output line: -2.53

Input line: Follow-up entry: `GGCGAGCAAUAUUACGGAAG`
Output line: -4.21

Input line: Follow-up entry: `CCGAAGCAAUAUUACGAAGG`
Output line: -4.66

New cases:
Input line: Entry under review: `GUCUAGCAAUAUUACGUGAG` . Reported self-splicing fitness (ln)?
Output line: -0.175

Input line: Follow-up entry: `ACUAAGCAAUAUUACGGUUA`
Output line: -2.02

Input line: Follow-up entry: `AAUGAGCAAUAUUACGAGUU`
Output line: -3.21
